Target: MDM2 (Homo sapiens, UniProt Q00987)
Sequence (Q00987 whole entry): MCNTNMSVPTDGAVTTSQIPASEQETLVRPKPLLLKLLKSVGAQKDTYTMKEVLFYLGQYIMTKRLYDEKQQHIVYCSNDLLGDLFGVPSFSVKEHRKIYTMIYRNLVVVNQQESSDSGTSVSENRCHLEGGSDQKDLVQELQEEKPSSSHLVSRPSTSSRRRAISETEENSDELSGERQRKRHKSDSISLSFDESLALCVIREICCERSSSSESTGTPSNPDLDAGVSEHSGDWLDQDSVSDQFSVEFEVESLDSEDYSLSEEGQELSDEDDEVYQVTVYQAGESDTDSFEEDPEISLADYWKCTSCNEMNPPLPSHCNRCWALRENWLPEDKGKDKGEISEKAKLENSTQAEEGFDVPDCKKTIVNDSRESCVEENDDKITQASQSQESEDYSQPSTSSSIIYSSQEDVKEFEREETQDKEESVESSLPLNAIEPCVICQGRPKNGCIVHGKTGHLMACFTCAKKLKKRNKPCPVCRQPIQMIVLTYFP
Assay: MDM2 binding screen: displacement of fluorescent p53 peptide probe FP53 (fluorescence polarization)
Conditions: Acid 25; replicate; crude macrocycle reactions
Numbered stars: 1 amine (or outer) side, 2 acyl side, 3 side chain; on linkers, the order of the positions; unused ones are H or OH. Bridge positions count the residues as written; N and C are the ends. Square brackets hold non-standard residues; d marks the D form. Peptide text beside a SMILES is read from it. * marks the point of attachment. Benzoyl(4-Cl) = O=C(c1ccc(Cl)cc1)*; Cysteamide = C(CS[*:3])N[*:1]; Api = NC1(C(=O)O)CCNCC1; Dap = NC[C@H](N)C(=O)O; Mpa = O=C(O)CCS
experimental_endpoint: fraction fluorescent probe displaced, Replicate
Just the number, please, no unit attached.

Give the measured fraction fluorescent probe displaced, Replicate for O=C1CCSSCCNC(=O)[C@H](Cc2c[nH]c3ccccc23)NC(=O)CCNC(=O)[C@H](CNC(=O)c2ccc(Cl)cc2)N1
0.0465

Give the measured fraction fluorescent probe displaced, Replicate for O=C1CCSSCCNC(=O)C2(CCN(C(=O)c3ccc(Cl)cc3)CC2)NC(=O)[C@H](Cc2c[nH]c3ccccc23)NC(=O)CCN1
0.0211

Give the measured fraction fluorescent probe displaced, Replicate for O=C(NC[C@@H]1NC(=O)[C@@H]2CCCN2C(=O)CCSSCCNC(=O)[C@H](Cc2ccccc2)NC1=O)c1ccc(Cl)cc1 [X B1 D3 F Acid 25] ([Mpa]P[Dap](Benzoyl(4-Cl))F-Cysteamide; disulfide 1-C)
0.22

Give the measured fraction fluorescent probe displaced, Replicate for O=C1CCNC(=O)[C@H](Cc2c[nH]c3ccccc23)NC(=O)C2(CCN(C(=O)c3ccc(Cl)cc3)CC2)NC(=O)CCSSCCN1
0.10

Give the measured fraction fluorescent probe displaced, Replicate for O=C1CCSSCCNC(=O)C2(CCN(C(=O)c3ccc(Cl)cc3)CC2)NC(=O)C2CCCN2C(=O)C(Cc2c[nH]c3ccccc23)N1 (centres unmarked) [X W B1 D6 Acid 25] ([Mpa]WP[Api](Benzoyl(4-Cl))-Cysteamide; disulfide 1-C; configuration not given here)
0.07

* * *

So I've got a bunch of compounds here, and I need their % thrombin activity, Repeat screen values.
Molecular target: thrombin (Homo sapiens)
Construct: consists of two polypeptide chains of 36 (light chain) and 259 amino acid
Assay: Thrombin inhibition screen of crude macrocycle reactions (residual thrombin activity, fluorogenic substrate Z-Gly-Gly-Arg-AMC)
Format: biochemical
Details: 10 µM macrocycle concentration; macrocycles containing acid 14; crude reaction; replicate reaction and screen
Protocol: As a proof-of-concept, we screened the macrocycle library for inhibitors against thrombin, which is the central blood coagulation protease and an important therapeutic target. We conducted the screen for thrombin-inhibiting macrocycles in 384-well reaction plates. Briefly, each well contained a unique macrocycle (10 μM), 5 μL of thrombin (2 nM final conc.), and subsequently, 5 µL of a fluorogenic substrate to measure the residual thrombin activity and the extent of protease inhibition. […]
Numbered stars: 1 amine (or outer) side, 2 acyl side, 3 side chain; on linkers, the order of the positions; unused ones are H or OH. Bridge positions count the residues as written; N and C are the ends. Square brackets hold non-standard residues; d marks the D form. Peptide text beside a SMILES is read from it. * marks the point of attachment. 2Thenoyl(5-Cl) = O=C(c1ccc(Cl)s1)*; Cysteamide = C(CS[*:3])N[*:1]; Orn = NCCC[CH](N)C(=O)O; Mpa = O=C(O)CCS
Just the number please, in %, no unit attached.

Give the measured % thrombin activity, Repeat screen for O=C1CCSSCCNC(=O)C2(CC2)CNC(=O)[C@H](CO)NC(=O)[C@H](CCCCNC(=O)c2ccc(Cl)s2)N1 [X D1 S B6]
98.2

Give the measured % thrombin activity, Repeat screen for O=C1CCNC(=O)[C@@H](Cc2c[nH]c3ccccc23)NC(=O)[C@@H](CNC(=O)c2ccc(Cl)s2)NC(=O)CCSSCCN1
96.7

Give the measured % thrombin activity, Repeat screen for CCC(C)C1NC(=O)C(CCCNC(=O)c2ccc(Cl)s2)NC(=O)CCSSCCNC(=O)C2CCCN2C1=O (stereo not shown) [X D2 I B1] ([Mpa][Orn](2Thenoyl(5-Cl))IP-Cysteamide; disulfide 1-C; configuration not given here)
90.4

Give the measured % thrombin activity, Repeat screen for O=C1CCSSCCNC(=O)[C@@H](CNC(=O)c2ccc(Cl)s2)NC(=O)[C@H]2CCCN(C2)C(=O)[C@H](Cc2c[nH]c3ccccc23)N1
112.0

Give the measured % thrombin activity, Repeat screen for NC(=O)CC[C@@H]1NC(=O)C2(CCN(C(=O)c3ccc(Cl)s3)CC2)NC(=O)c2cccc(c2)CNC(=O)CCSSCCNC1=O
55.7

Give the measured % thrombin activity, Repeat screen for CC[C@H](C)[C@@H]1NC(=O)[C@H](CCCNC(=O)c2ccc(Cl)s2)NC(=O)CCSSCCNC(=O)CCNC1=O [X D2 I B2]
96.8

Give the measured % thrombin activity, Repeat screen for O=C1CCSSCCNC(=O)C(Cc2ccccc2)NC(=O)C2CC(NC(=O)c3ccc(Cl)s3)CN2C(=O)c2cccc(c2)CN1 (stereo not shown)
95.8

Give the measured % thrombin activity, Repeat screen for NC(=O)CCC1NC(=O)C2CC(NC(=O)c3ccc(Cl)s3)CN2C(=O)C2(CC2)CNC(=O)CCSSCCNC1=O (stereo not shown)
121.6

Give the measured % thrombin activity, Repeat screen for O=C1CCSSCCNC(=O)C(CNC(=O)c2ccc(Cl)s2)NC(=O)c2cccc(c2)CNC(=O)C(Cc2ccccc2)N1 (stereo not shown)
6.5

Give the measured % thrombin activity, Repeat screen for CC(C)C[C@@H]1NC(=O)CCSSCCNC(=O)c2cccc(c2)CNC(=O)[C@H](CCCNC(=O)c2ccc(Cl)s2)NC1=O [X L D2 B5]
95.2

Give the measured % thrombin activity, Repeat screen for CC(C)C[C@@H]1NC(=O)[C@H]2CCCN(C2)C(=O)CCSSCCNC(=O)[C@@H](CNC(=O)c2ccc(Cl)s2)NC1=O
93.7

Give the measured % thrombin activity, Repeat screen for CC1NC(=O)c2ccc(cc2)CNC(=O)C2(CCN(C(=O)c3ccc(Cl)s3)CC2)NC(=O)CCSSCCNC1=O (stereo not shown)
95.8

Give the measured % thrombin activity, Repeat screen for C[C@H]1NC(=O)CCNC(=O)CCSSCCNC(=O)C2(CCN(C(=O)c3ccc(Cl)s3)CC2)NC1=O
92.7

* * *

So I've got a bunch of compounds here, and I need their fraction fluorescent probe displaced values.
Molecular target: MDM2 (Homo sapiens, UniProt Q00987)
Assay: MDM2 binding screen: displacement of fluorescent p53 peptide probe FP53 (fluorescence polarization)
Conditions: 10 µM macrocycle concentration; crude acylated macrocycle (scaffold Mpa-AA1-AA2-AA3 x carboxylic acid); p53-based fluorescent peptide, human MDM2
Procedure: We screened Library 2 in 384-microwell plates by dispensing the target protein MDM2 and reporter peptide into the wells containing the macrocycle reactions. The products were screened for displacement of a p53-based fluorescent peptide from human MDM2. […] For each macrocycle, the MDM2 binding was measured once. One fluorescence anisotropy reading was taken with a Tecan Infinite F200 Pro fluorescence plate reader (excitation at 485 nm, emission at 535 nm) at 25 °C. […]
Numbered stars: 1 amine (or outer) side, 2 acyl side, 3 side chain; on linkers, the order of the positions; unused ones are H or OH. Bridge positions count the residues as written; N and C are the ends. Square brackets hold non-standard residues; d marks the D form. Peptide text beside a SMILES is read from it. * marks the point of attachment. Benzoyl(4-Cl) = O=C(c1ccc(Cl)cc1)*; Cyclohexylacetyl = O=C(CC1CCCCC1)*; Cysteamide = C(CS[*:3])N[*:1]; Dap = NC[C@H](N)C(=O)O; Mpa = O=C(O)CCS
Just the number, please, no unit attached.

Give the measured fraction fluorescent probe displaced for O=C(NC[C@@H]1NC(=O)[C@@H]2CCCN2C(=O)CCSSCCNC(=O)[C@H](Cc2c[nH]c3ccccc23)NC1=O)c1ccc(Cl)cc1 [X-B1-D3-W + A25] ([Mpa]P[Dap](Benzoyl(4-Cl))W-Cysteamide; disulfide 1-C)
0.2195

Give the measured fraction fluorescent probe displaced for O=C(CC1CCCCC1)NC[C@@H]1NC(=O)[C@@H]2CCCN2C(=O)CCSSCCNC(=O)[C@H](Cc2ccccc2)NC1=O [X-B1-D3-F + A66] ([Mpa]P[Dap](Cyclohexylacetyl)F-Cysteamide; disulfide 1-C)
0.03478

* * *

Biological target: UniProtKB Q00987
Assay: MDM2 binding screen: displacement of fluorescent p53 peptide probe FP53 (fluorescence polarization)
Conditions: Acid 25; replicate; crude macrocycle reactions
Numbered stars: 1 amine (or outer) side, 2 acyl side, 3 side chain; on linkers, the order of the positions; unused ones are H or OH. Bridge positions count the residues as written; N and C are the ends. Square brackets hold non-standard residues; d marks the D form. Peptide text beside a SMILES is read from it. ξ: configuration not given here. ξPro(4ξ-NHCOC6H4-4-Cl) = O=C(NC1CNC(C(=O)O)C1)c1ccc(Cl)cc1; Cysteamide = C(CS[*:3])N[*:1]; Mpa = O=C(O)CCS
So I've got a bunch of compounds here, and I need their fraction fluorescent probe displaced, Replicate values.
Just the number, please, no unit attached.

Give the measured fraction fluorescent probe displaced, Replicate for O=C1CCSSCCNC(=O)[C@H](CNC(=O)c2ccc(Cl)cc2)NC(=O)[C@H](Cc2ccccc2)NC(=O)c2cccc(c2)CN1
0.0465

Give the measured fraction fluorescent probe displaced, Replicate for O=C1NC(Cc2ccccc2)C(=O)NCCSSCCC(=O)N2CCN(C(=O)c3ccc(Cl)cc3)CC2C(=O)NCc2cccc1c2 (stereo not drawn)
0.12

Give the measured fraction fluorescent probe displaced, Replicate for O=C1CCSSCCNC(=O)C2CN(C(=O)c3ccc(Cl)cc3)CCN2C(=O)C2CCCN2C(=O)C(Cc2c[nH]c3ccccc23)N1 (stereo not drawn)
0.17

Give the measured fraction fluorescent probe displaced, Replicate for O=C1CCSSCCNC(=O)c2cccc(c2)CNC(=O)C(Cc2ccccc2)NC(=O)C(CNC(=O)c2ccc(Cl)cc2)N1 (stereo not drawn)
0.10

Give the measured fraction fluorescent probe displaced, Replicate for O=C(NC1CC2C(=O)N3CCCC3C(=O)NC(Cc3c[nH]c4ccccc34)C(=O)NCCSSCCC(=O)N2C1)c1ccc(Cl)cc1 (stereo not drawn) [X D5 B1 W Acid 25] ([Mpa][ξPro(4ξ-NHCOC6H4-4-Cl)]PW-Cysteamide; disulfide 1-C; configuration not given here)
0.15

Give the measured fraction fluorescent probe displaced, Replicate for O=C1CCNC(=O)C2CN(C(=O)c3ccc(Cl)cc3)CCN2C(=O)CCSSCCNC(=O)C(Cc2ccccc2)N1 (mixture of isomers)
0.07
